pIC50: −log10 of the molar value.
Each entry below carries its measured pIC50, system: TGF-beta receptor type-2 (Homo sapiens).
Sequence (P37173 whole entry): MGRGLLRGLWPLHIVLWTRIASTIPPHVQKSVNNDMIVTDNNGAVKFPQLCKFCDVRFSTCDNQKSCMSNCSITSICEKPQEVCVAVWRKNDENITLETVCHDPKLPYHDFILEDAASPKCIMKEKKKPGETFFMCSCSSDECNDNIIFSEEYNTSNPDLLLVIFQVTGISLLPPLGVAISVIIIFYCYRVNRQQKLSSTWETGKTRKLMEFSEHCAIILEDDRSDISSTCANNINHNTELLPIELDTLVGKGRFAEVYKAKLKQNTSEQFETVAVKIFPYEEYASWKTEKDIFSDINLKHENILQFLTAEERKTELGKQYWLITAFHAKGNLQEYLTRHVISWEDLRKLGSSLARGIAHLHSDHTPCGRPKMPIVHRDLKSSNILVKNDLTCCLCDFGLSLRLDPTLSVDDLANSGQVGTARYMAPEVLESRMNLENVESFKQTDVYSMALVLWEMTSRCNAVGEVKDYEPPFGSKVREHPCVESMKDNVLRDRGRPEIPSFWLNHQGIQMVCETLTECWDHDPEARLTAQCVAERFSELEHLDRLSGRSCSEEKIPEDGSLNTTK

[
  {
    "compound": "CN1C(=O)[C@@H](N2CCc3cn(CC4CCS(=O)(=O)CC4)nc3C2=O)COc2ccccc21 [TP-030n]",
    "pIC50": 6.00
  },
  {
    "compound": "CN1C(=O)[C@@H](N2CCc3cn(Cc4ccccc4)nc3C2=O)COc2ccccc21 [TP-030-1]",
    "pIC50": 6.00
  }
]

###

# tested_on: Serine/threonine-protein kinase 38 (Homo sapiens, UniProt Q15208)
# Sequence (Q15208 whole entry): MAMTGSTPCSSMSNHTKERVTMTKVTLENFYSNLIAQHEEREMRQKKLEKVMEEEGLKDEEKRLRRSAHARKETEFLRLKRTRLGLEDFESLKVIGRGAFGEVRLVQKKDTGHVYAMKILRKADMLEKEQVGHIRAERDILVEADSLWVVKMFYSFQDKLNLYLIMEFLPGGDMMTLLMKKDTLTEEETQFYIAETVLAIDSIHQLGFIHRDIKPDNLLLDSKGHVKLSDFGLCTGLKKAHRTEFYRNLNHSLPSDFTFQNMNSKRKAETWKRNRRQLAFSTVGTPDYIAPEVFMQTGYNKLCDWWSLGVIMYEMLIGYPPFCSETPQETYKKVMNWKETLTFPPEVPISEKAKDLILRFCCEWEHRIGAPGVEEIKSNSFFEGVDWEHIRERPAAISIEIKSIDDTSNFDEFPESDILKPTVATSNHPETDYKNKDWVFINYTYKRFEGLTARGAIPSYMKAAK
pIC50: −log10 of the molar value.
outcome_measure: pIC50

[
  {
    "molecule": "CN1C(=O)[C@@H](N2CCc3cn(CC4CCS(=O)(=O)CC4)nc3C2=O)COc2ccccc21 [TP-030n]",
    "readout_value": 6.00
  }
]
